Recorded values, source patent US20240041042A1.

Test system: Verconica persica (VERPE)
Assay: Post-emergence herbicidal action against VERPE
Assay type: in vivo
Details: dosage 80 g/ha
Procedure: Seeds of monocotyledonous and dicotyledonous weeds and crop plants are placed in sandy loam in plastic or organic planting pots, covered with soil and cultivated in a greenhouse under controlled growth conditions. 2 to 3 weeks after sowing, the test plants are treated at the one-leaf stage. […]
Post-emergence action against VERPE in % overview
API: value field is a number in %; no unit string.

Worked examples follow.
COMPOUND | RESULT_UNIT | EXPERIMENTAL_RESULT
CCOC(=O)COc1nn(-c2ncccc2Cl)c(-c2ccc(F)nc2)c1Br [Example I-23] | % | 80
C[C@@H](Oc1nn(-c2ncccc2F)c(-c2ccc(F)nc2)c1C(F)(F)F)C(=O)O [Example I-317] | % | 90

Entry C[C@@H](Oc1nn(-c2nc(F)ccc2F)c(-c2cncc(F)c2)c1Br)C(=O)O [Example I-155] , Post-emergence action against VERPE in % reported as 80
